# assay-details: in vitro
# experimental-setup: human
# CC50 at 5 days listing for each entry below
measure-name: CC50 at 5 days

compound	result
COC(=O)C1=C(CN2CC(F)(F)C[C@H]2C(=O)O)NC(c2ncc(C)s2)=NC1(C)c1ccc(F)cc1 (stereo partly shown)	> 100 µM
COC(=O)C1=C(CN2CC(F)(F)C[C@H]2CO)NC(c2nccs2)=N[C@@]1(C)c1ccc(F)cc1	≥ 100 µM
COC(=O)C1=C(CN2CC(F)(F)C[C@H]2C(=O)OCCN(C)C)NC(c2nccs2)=N[C@@]1(C)c1ccc(F)cc1	≥ 100 µM
COC(=O)C1=C(CN2CC(F)(F)C[C@H]2c2nnn[nH]2)NC(c2nccs2)=N[C@@]1(C)c1ccc(F)cc1	≥ 100 µM
